Experimental System: CDK1/Cyclin B1 (Homo sapiens, UniProt P06493)
Sequence (P06493 whole entry): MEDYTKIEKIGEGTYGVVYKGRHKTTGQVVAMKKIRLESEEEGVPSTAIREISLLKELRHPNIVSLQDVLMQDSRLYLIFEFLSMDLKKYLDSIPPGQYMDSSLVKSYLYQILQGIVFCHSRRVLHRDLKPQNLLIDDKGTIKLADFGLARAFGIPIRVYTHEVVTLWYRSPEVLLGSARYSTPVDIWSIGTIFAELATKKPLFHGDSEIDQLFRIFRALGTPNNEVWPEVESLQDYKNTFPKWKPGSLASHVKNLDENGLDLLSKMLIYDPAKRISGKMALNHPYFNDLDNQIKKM
Sequence (P14635 whole entry partner): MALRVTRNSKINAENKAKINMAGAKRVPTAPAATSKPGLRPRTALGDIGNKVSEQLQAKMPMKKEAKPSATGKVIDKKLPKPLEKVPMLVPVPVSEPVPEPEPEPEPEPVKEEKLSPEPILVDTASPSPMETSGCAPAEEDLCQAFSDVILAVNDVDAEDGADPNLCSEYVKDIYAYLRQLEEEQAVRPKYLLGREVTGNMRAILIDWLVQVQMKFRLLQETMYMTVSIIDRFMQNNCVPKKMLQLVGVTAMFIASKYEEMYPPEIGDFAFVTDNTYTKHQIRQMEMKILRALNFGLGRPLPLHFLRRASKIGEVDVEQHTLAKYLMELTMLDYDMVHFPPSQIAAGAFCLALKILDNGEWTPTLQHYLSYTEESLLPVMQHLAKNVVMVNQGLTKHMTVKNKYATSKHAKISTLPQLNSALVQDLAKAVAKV
Assay Comment: CDK1/Cyclin B1 Biochemical Assay (TR-FRET), 0.015 mM ATP
Details: 0.15 μM Rb (Ser780)-biotin substrate, pH7.0, 60 min preincubation, 120 min reaction, room temperature
# note: boundary value 0.2 µM maps to rule not met; IC50 below it maps to rule met

# count of solved cases: 5
| Compound | Class |
| --- | --- |
| CC(C)NC(=O)O[C@H]1CC[C@@H](c2cc(Nc3ccc4c(c3F)CN(C3CCCC3O)S4(=O)=O)n[nH]2)C1 (relative stereo) [Example 109] | rule not met |
| COCCN1Cc2c(ccc(Nc3cc([C@@H]4CC[C@H](OC(=O)NC(C)C)C4)[nH]n3)c2C)S1(=O)=O (relative stereo) [Example 36] | rule not met |
| CN1Cc2c(ccc(Nc3cc([C@@H]4CC[C@H](OC(=O)NC5(C)COC5)C4)[nH]n3)c2F)S1(=O)=O (single isomer, unassigned) [Example 352a] | rule not met |
| CC(C)NC(=O)O[C@H]1CC[C@@H](c2cc(Nc3ccc4c(c3)CS(=O)(=O)N4CCO)n[nH]2)C1 (single isomer, unassigned) [Example 219a] | rule met |
| CN1c2ccc(Nc3cc([C@@H]4CC[C@H](OC(=O)NCCC(F)(F)F)C4)[nH]n3)cc2CS1(=O)=O (relative stereo) [Example 230] | rule met |

Proceed to the following item.
Is the reported IC50 for COCC1(NC(=O)O[C@H]2CC[C@@H](c3cc(Nc4ccc5c(c4F)CNS5(=O)=O)n[nH]3)C2)CC1 (single isomer, unassigned) [Example 158b] strictly below 0.2 µM?
rule not met

---

Experimental System: CDK2/Cyclin E1 (Homo sapiens, UniProt P24941)
Assay Comment: CDK2/Cyclin E1 Biochemical Assay (TR-FRET), 1 mM ATP
Details: 0.15 μM Rb (Ser780)-biotin substrate, pH7.0, 60 min preincubation, 90 min reaction, room temperature
Measurement Label: pIC50
# log scale: pIC50 equals minus log10 of the concentration in mol/L

Study these solved cases before continuing.
| Compound | pIC50 |
| --- | --- |
| O=C(NC12CC(O)(C1)C2)O[C@H]1CC[C@@H](c2cc(Nc3cc4c(cc3F)S(=O)(=O)NC4)n[nH]2)C1 (relative stereo) [Example 456] | 9.30 |
| CC1(NC(=O)O[C@H]2CC[C@@H](c3cc(Nc4ccc5c(c4F)CS(=O)(=O)N5)n[nH]3)C2)CCCC1 (relative stereo) [Example 439] | 8.57 |
| CC[C@H](C)NC(=O)O[C@H]1CC[C@@H](c2cc(Nc3ccc4c(c3F)CCS(=O)(=O)N4)n[nH]2)C1 (relative stereo) [Example 461] | 9.52 |
| CCCNC(=O)O[C@H]1CC[C@@H](c2cc(Nc3ccc4c(c3F)CS(=O)(=O)N4CC(C)(C)O)n[nH]2)C1 [Example 433b] | 7.74 |
| CC(C)NC(=O)O[C@H]1CC[C@@H](c2cc(Nc3ccc4c(c3F)CS(=O)(=O)N4CC(C)(C)O)n[nH]2)C1 (single isomer, unassigned) [Example 254b] | 8.05 |

Param item = CC(C)NC(=O)O[C@H]1CC[C@@H](c2cc(Nc3cc4c(cn3)S(=O)(=O)NC4)n[nH]2)C1 (relative stereo) [Example 425] ; retrieve measured pIC50.
5.71

---

Experimental System: CDK1/Cyclin B1 (Homo sapiens)
Assay Comment: CDK1/Cyclin B1 Biochemical Assay (TR-FRET), 0.015 mM ATP
Details: 0.15 μM Rb (Ser780)-biotin substrate, pH7.0, 60 min preincubation, 120 min reaction, room temperature
IC50 listing for selected compounds.
Write the answer as a number in nM, unit excluded.

| Compound | Experimental System | IC50 [nM] |
| --- | --- | --- |
| CC(C)(C)NC(=O)O[C@@H]1CC[C@H](c2cc(Nc3ccc4c(c3)CS(=O)(=O)N4)n[nH]2)C1 [Example 403a] | CDK1/Cyclin B1 (Homo sapiens) | 10 |
| CC(C)NC(=O)O[C@H]1CC[C@@H](c2cc(Nc3ccc4c(c3F)CN(CC3CCC3)S4(=O)=O)n[nH]2)C1 (relative stereo) | CDK1/Cyclin B1 (Homo sapiens) | 2020 |

Now for another entry.
Param item = CC(C)NC(=O)O[C@H]1CC[C@@H](c2cc(Nc3ccc4c(c3)CS(=O)(=O)N4)n[nH]2)C1 (single isomer, unassigned) ; retrieve measured IC50.
17

---

Experimental System: CDK1/Cyclin B1 (Homo sapiens, UniProt P06493)
Assay Comment: CDK1/Cyclin B1 Biochemical Assay (TR-FRET), 1 mM ATP
Details: 0.15 μM Rb (Ser780)-biotin substrate, pH7.0, 60 min preincubation, 90 min reaction, room temperature
IC50 listing for selected compounds.

| Compound | IC50 |
| --- | --- |
| CC(C)NC(=O)O[C@H]1CC[C@@H](c2cc(Nc3ccc4c(c3F)CCS(=O)(=O)N4)n[nH]2)C1 (single isomer, unassigned) [Example 430b] | 784 nM |

Param item = CN(C(=O)O[C@H]1CC[C@@H](c2cc(Nc3ccc4c(c3F)CNS4(=O)=O)n[nH]2)C1)C1CCOC1 (relative stereo) [Example 437] ; retrieve measured IC50.
> 10000 nM

# repeat for CC(C)(C)NC(=O)O[C@@H]1CC[C@H](c2cc(Nc3ccc4c(c3F)CCS(=O)(=O)N4)n[nH]2)C1 [Example 464]
325 nM

---

pIC50 listing for selected compounds.
Experimental System: CDK1/Cyclin B1 (Homo sapiens, UniProt P06493)
Assay Comment: CDK1/Cyclin B1 Biochemical Assay (TR-FRET), 0.015 mM ATP
Details: 0.15 μM Rb (Ser780)-biotin substrate, pH7.0, 60 min preincubation, 120 min reaction, room temperature
# log scale: pIC50 equals minus log10 of the concentration in mol/L

| Compound | pIC50 |
| --- | --- |
| O=C(NCCC(F)(F)F)O[C@H]1CC[C@@H](c2cc(Nc3cc4c(cc3F)S(=O)(=O)NC4)n[nH]2)C1 (single isomer, unassigned) [Example 419b] | 7.11 |
| O=C(NC1CCCC1)O[C@H]1CC[C@@H](c2cc(Nc3ccc4c(c3F)CS(=O)(=O)N4)n[nH]2)C1 (single isomer, unassigned) [Example 400b] | 7.19 |

Param item = CCCNC(=O)O[C@H]1CC[C@@H](c2cc(Nc3ccc4c(c3F)CS(=O)(=O)N4CCO)n[nH]2)C1 (single isomer, unassigned) [Example 272b] ; retrieve measured pIC50.
7.23

# repeat for CC(C)NC(=O)O[C@H]1CC[C@@H](c2cc(Nc3ccc4c(c3F)CN(C3CCN(C)C3=O)S4(=O)=O)n[nH]2)C1 (relative stereo) [Example 93]
6.27

# repeat for CN1Cc2c(ccc(Nc3cc([C@@H]4CC[C@H](OC(=O)NC5CCC(O)CC5)C4)[nH]n3)c2F)S1(=O)=O (single isomer, unassigned) [Example 167]
6.29

---

Experimental System: CDK1/Cyclin B1 (Homo sapiens)
Assay Comment: CDK1/Cyclin B1 Biochemical Assay (TR-FRET), 0.015 mM ATP
Details: 0.15 μM Rb (Ser780)-biotin substrate, pH7.0, 60 min preincubation, 120 min reaction, room temperature
pIC50 listing for selected molecules.
# log scale: pIC50 equals minus log10 of the concentration in mol/L

Study these solved cases before continuing.
| Molecule | Experimental System | Value |
| --- | --- | --- |
| CC1(NC(=O)O[C@H]2CC[C@@H](c3cc(Nc4ccc5c(c4F)CS(=O)(=O)N5CCO)n[nH]3)C2)CCOC1 (relative stereo) | CDK1/Cyclin B1 (Homo sapiens) | 6.92 |
| CC1(NC(=O)O[C@H]2CC[C@@H](c3cc(Nc4ccc5c(c4F)C(C)(C)NS5(=O)=O)n[nH]3)C2)CC1 (relative stereo) | CDK1/Cyclin B1 (Homo sapiens) | 6.33 |
| CC1(NC(=O)O[C@H]2CC[C@@H](c3cc(Nc4ccc5c(c4F)CN(C4CC4)S5(=O)=O)n[nH]3)C2)CC1 (single isomer, unassigned) [Example 119a] | CDK1/Cyclin B1 (Homo sapiens) | 6.67 |

What value of pIC50 on CDK1/Cyclin B1 (Homo sapiens) does [2H]C([2H])([2H])N1c2ccc(Nc3cc([C@@H]4CC[C@H](OC(=O)NC(C)C)C4)[nH]n3)cc2CS1(=O)=O (relative stereo) have?
7.20

# repeat for CN1c2ccc(Nc3cc([C@@H]4CC[C@H](OC(=O)NC5(C)CCOC5)C4)[nH]n3)c(F)c2CS1(=O)=O (single isomer, unassigned) [Example 349d]
6.82

# repeat for CC(C)NC(=O)O[C@H]1CC[C@@H](c2cc(Nc3ccc4c(c3)S(=O)(=O)NC4)n[nH]2)C1 (relative stereo)
7.54

---

pIC50 listing for selected molecules.
Experimental System: CDK2/Cyclin E1 (Homo sapiens, UniProt P24941)
Assay Comment: CDK2/Cyclin E1 Biochemical Assay (TR-FRET), 0.060 mM ATP
Details: 0.15 μM Rb (Ser780)-biotin substrate, pH7.0, 60 min preincubation, 120 min reaction, room temperature
# log scale: pIC50 equals minus log10 of the concentration in mol/L

Study these solved cases before continuing.
| Molecule | Measurement Label | Value |
| --- | --- | --- |
| CC1(NC(=O)O[C@H]2CC[C@@H](c3cc(Nc4ccc5c(c4F)CN(C4COC4)S5(=O)=O)n[nH]3)C2)CC1 (relative stereo) | pIC50 | 8.37 |
| CC(C)NC(=O)O[C@H]1CC[C@@H](c2cc(Nc3ccc4c(c3)CS(=O)(=O)N4CC3COC3)n[nH]2)C1 (relative stereo) | pIC50 | 8.68 |

Param item = CC(C)NC(=O)O[C@H]1CC[C@@H](c2cc(Nc3ccc4c(c3F)CN(C3CCN(S(C)(=O)=O)C3)S4(=O)=O)n[nH]2)C1 (relative stereo) ; retrieve measured pIC50.
8.34

# repeat for O=C(NC1(CO)CCC1)O[C@H]1CC[C@@H](c2cc(Nc3ccc4c(c3F)CS(=O)(=O)N4)n[nH]2)C1 (relative stereo)
8.70

# repeat for CC(C)NC(=O)O[C@H]1CC[C@@H](c2cc(Nc3ccc4c(c3)CCNS4(=O)=O)n[nH]2)C1 (relative stereo)
9.15

# repeat for CC[C@H](C)NC(=O)O[C@H]1CC[C@@H](c2cc(Nc3ccc4c(c3F)C(C)(C)NS4(=O)=O)n[nH]2)C1 (relative stereo)
7.32

# repeat for CC(NC(=O)O[C@H]1CC[C@@H](c2cc(Nc3ccc4c(c3F)CNS4(=O)=O)n[nH]2)C1)C1COC1 (relative stereo)
8.04

# repeat for CC[C@H](C)NC(=O)O[C@H]1CC[C@@H](c2cc(Nc3ccc4c(c3F)S(=O)(=O)NC4)n[nH]2)C1 (relative stereo)
9.10

# repeat for COc1cc2c(cc1Nc1cc([C@@H]3CC[C@H](OC(=O)NC(C)C)C3)[nH]n1)C(C)(C)NS2(=O)=O (relative stereo)
6.61

# repeat for CC(C)NC(=O)O[C@H]1CC[C@@H](c2cc(Nc3ccc4c(c3F)CN(C(C)C3CCOC3)S4(=O)=O)n[nH]2)C1 (relative stereo)
8.22
